- subjectOfTest: Sterol 24-C-methyltransferase (Yarrowia lipolytica)
- assayOverview: Inhibition of Yarrowia lipolytica 24-SMT assessed as 5-dehydroepisterol-3-trimethylsilyl derivative at 0.06 ug/mL after 48 hrs by GC-MS analysis relative to untreated control
- Set-up: scale not given: the % may be the effect or the level left
Sorting guide: entries reporting Activity beneath 2% go in the t pile, the rest go in the f pile.

## Task For C[C@H](/C=C/c1cccc[n+]1C)[C@H]1CC[C@H]2C3=CCC4C[C@@H](O)CC[C@]4(C)[C@H]3CC[C@]12C.[I-] (stereo not given in full) , is the recorded Activity below the cut-off of 2%?
## Result t

## Task For C[C@H](/C=C/c1cc[n+](C)cc1)[C@H]1CCC2C3=CCC4C[C@@H](O)CC[C@]4(C)C3CC[C@@]21C.[I-] (stereo not given in full) , is the recorded Activity below the cut-off of 2%?
## Result t

## Task For CCCCNC[C@@H](C)[C@H]1CC[C@H]2C3=CC[C@H]4C[C@@H](O)CC[C@]4(C)[C@H]3CC[C@]12C , is the recorded Activity below the cut-off of 2%?
## Result f

## Task For CCCCCNC[C@@H](C)[C@H]1CC[C@H]2C3=CC[C@H]4C[C@@H](O)CC[C@]4(C)[C@H]3CC[C@]12C , is the recorded Activity below the cut-off of 2%?
## Result f

Now for a further compound.
## Task For CCCNCC[C@@H](C)[C@H]1CC[C@H]2C3=CC[C@H]4C[C@@H](O)CC[C@]4(C)[C@H]3CC[C@]12C , is the recorded Activity below the cut-off of 2%?
## Result f

====

- subjectOfTest: UniProt Q6C2D9
- Sequence (Q6C2D9 whole entry): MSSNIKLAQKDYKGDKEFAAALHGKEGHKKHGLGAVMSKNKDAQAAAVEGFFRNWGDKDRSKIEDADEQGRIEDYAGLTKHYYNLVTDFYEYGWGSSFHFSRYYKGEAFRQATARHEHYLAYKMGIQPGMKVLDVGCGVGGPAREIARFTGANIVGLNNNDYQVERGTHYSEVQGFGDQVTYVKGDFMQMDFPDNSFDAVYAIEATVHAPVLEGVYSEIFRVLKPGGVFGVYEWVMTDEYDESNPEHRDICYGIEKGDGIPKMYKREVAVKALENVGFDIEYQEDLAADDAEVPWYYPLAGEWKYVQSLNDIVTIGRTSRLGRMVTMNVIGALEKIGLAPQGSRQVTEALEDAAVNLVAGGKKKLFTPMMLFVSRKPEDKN
- assayOverview: Inhibition of Yarrowia lipolytica 24-SMT assessed as cholesta-7,24-dien-3-trimethylsilyl derivative at 0.2 ug/mL after 48 hrs by GC-MS analysis relative to untreated control
- Set-up: scale not given: the % may be the effect or the level left
metricName: Activity (%)
Give bare numbers, in %.

// CCNC[C@@H](C)[C@H]1CC[C@H]2C3=CC[C@H]4C[C@@H](O)CC[C@]4(C)[C@H]3CC[C@]12C : Activity value = 3.6

// input: 3 compounds below; output: Activity for each
1. CC(C)C(C)NC[C@@H](C)[C@H]1CC[C@H]2C3=CC[C@H]4C[C@@H](O)CC[C@]4(C)[C@H]3CC[C@]12C (mixture of isomers)
2. CCCCN(C)C[C@@H](C)[C@H]1CC[C@H]2C3=CC[C@H]4C[C@@H](O)CC[C@]4(C)[C@H]3CC[C@]12C
3. C[C@H](/C=C/c1cccc[n+]1C)[C@H]1CC[C@H]2C3=CCC4C[C@@H](O)CC[C@]4(C)[C@H]3CC[C@]12C.[I-] (some centres undefined)

## Result
[2.4, 5.6, 4.3]

====

Could you please report measured Activity for the items listed next?
- subjectOfTest: Sterol 24-C-methyltransferase (Yarrowia lipolytica)
- assayOverview: Inhibition of Yarrowia lipolytica 24-SMT assessed as dehydroergosterol-3-trimethylsilyl derivative at 2 ug/mL after 48 hrs by GC-MS analysis relative to untreated control
- Design: scale not given: the % may be the effect or the level left

// input: 4 compounds below; output: Activity for each
1. C[C@H](CNCCCN(C)C)[C@H]1CC[C@H]2C3=CC[C@H]4C[C@@H](O)CC[C@]4(C)[C@H]3CC[C@]12C
2. CCCC[S+](C)C[C@@H](C)[C@H]1CC[C@H]2C3=CC[C@H]4C[C@@H](O)CC[C@]4(C)[C@H]3CC[C@]12C.[I-] (mixture of isomers)
3. CNC[C@@H](C)[C@H]1CC[C@H]2C3=CC[C@H]4C[C@@H](O)CC[C@]4(C)[C@H]3CC[C@]12C
4. C[C@H](CNCCN1CCCC1)[C@H]1CC[C@H]2C3=CC[C@H]4C[C@@H](O)CC[C@]4(C)[C@H]3CC[C@]12C

## Result
66.4%
7.8%
55.4%
40.1%
